- Study target: 3-oxo-5-alpha-steroid 4-dehydrogenase 1 (Homo sapiens)
- Sequence (P18405 whole entry): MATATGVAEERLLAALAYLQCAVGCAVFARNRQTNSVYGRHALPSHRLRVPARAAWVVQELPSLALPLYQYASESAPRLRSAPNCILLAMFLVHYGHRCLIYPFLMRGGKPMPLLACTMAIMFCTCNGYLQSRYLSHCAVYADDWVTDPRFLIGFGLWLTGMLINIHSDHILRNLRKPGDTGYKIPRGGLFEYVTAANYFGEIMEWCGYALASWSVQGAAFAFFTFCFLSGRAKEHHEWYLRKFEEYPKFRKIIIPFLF
- Experiment notes: Inhibition of recombinant human Steroid 5-alpha-reductase type I
The entries below are paired with their reported pIC50.
Scale: negative log10 of molar concentration, which is what pIC50 denotes.

> print(dat)
                                   compound                              study.target  property  observed
1  C[C@]12C=CC(=O)NC1CCC1C2CC[C@]2(C)C(C(=O)Nc3ccc4ccccc4c3)CCC12 (stereo not given in full)  3-oxo-5-alpha-steroid 4-dehydrogenase 1 (Homo sapiens)     pIC50      7.76
2  COc1ccc(NC(=O)C2CCC3C4CCC5NC(=O)C=C[C@]5(C)C4CC[C@]23C)cc1 (stereo not given in full)  3-oxo-5-alpha-steroid 4-dehydrogenase 1 (Homo sapiens)     pIC50      7.59
3  C[C@]12C=CC(=O)NC1CCC1C2CC[C@]2(C)C(C(=O)Nc3cccc4ccccc34)CCC12 (stereo not given in full)  3-oxo-5-alpha-steroid 4-dehydrogenase 1 (Homo sapiens)     pIC50      8.09
4  C[C@]12C=CC(=O)NC1CCC1C2CC[C@]2(C)C(C(=O)Nc3ccc(Cl)cc3)CCC12 (stereo not given in full)  3-oxo-5-alpha-steroid 4-dehydrogenase 1 (Homo sapiens)     pIC50      8.17
5  C[C@]12C=CC(=O)NC1CCC1C2CC[C@]2(C)C(C(=O)Nc3cccc(Cl)c3)CCC12 (stereo not given in full)  3-oxo-5-alpha-steroid 4-dehydrogenase 1 (Homo sapiens)     pIC50      7.74
6  C[C@]12C=CC(=O)NC1CCC1C2CC[C@]2(C)C(C(=O)Nc3cccc(C(=O)c4ccccc4)c3)CCC12 (stereo not given in full)  3-oxo-5-alpha-steroid 4-dehydrogenase 1 (Homo sapiens)     pIC50      7.92

Identify pIC50 associated with the compound C[C@]12C=CC(=O)NC1CCC1C2CC[C@]2(C)C(C(=O)Nc3cccc(-c4ccccc4)c3)CCC12 (stereo not given in full) 7.85

Identify pIC50 associated with the compound C[C@]12C=CC(=O)NC1CCC1C2CC[C@]2(C)C(C(=O)Nc3cccc(O)c3)CCC12 (stereo not given in full) 7.28

Identify pIC50 associated with the compound C[C@]12C=CC(=O)NC1CCC1C2CC[C@]2(C)C(C(=O)Nc3ccc(O)cc3)CCC12 (stereo not given in full) 7.13

Identify pIC50 associated with the compound C[C@]12C=CC(=O)NC1CCC1C2CC[C@]2(C)C(C(=O)Nc3ccc(C(=O)c4ccccc4)cc3)CCC12 (stereo not given in full) 7.72

Identify pIC50 associated with the compound COc1cccc(NC(=O)C2CCC3C4CCC5NC(=O)C=C[C@]5(C)C4CC[C@]23C)c1 (stereo not given in full) 7.72

Identify pIC50 associated with the compound Cc1cccc(NC(=O)C2CCC3C4CCC5NC(=O)C=C[C@]5(C)C4CC[C@]23C)c1 (stereo not given in full) 7.61

Identify pIC50 associated with the compound C[C@]12C=CC(=O)NC1CCC1C2CC[C@]2(C)C(C(=O)Nc3cccc(N)c3)CCC12 (stereo not given in full) 7.03

Identify pIC50 associated with the compound COc1ccccc1NC(=O)C1CCC2C3CCC4NC(=O)C=C[C@]4(C)C3CC[C@]12C (stereo not given in full) 7.96

Identify pIC50 associated with the compound C[C@]12C=CC(=O)NC1CCC1C2CC[C@]2(C)C(C(=O)Nc3cccc(Br)c3)CCC12 (stereo not given in full) 7.69

Identify pIC50 associated with the compound C[C@]12C=CC(=O)NC1CCC1C2CC[C@]2(C)C(C(=O)N3CCCc4ccccc43)CCC12 (stereo not given in full) 6.81

Identify pIC50 associated with the compound C[C@]12C=CC(=O)NC1CCC1C2CC[C@]2(C)C(C(=O)Nc3ccc(-c4ccccc4)cc3)CCC12 (stereo not given in full) 7.46

Identify pIC50 associated with the compound Cc1ccc(NC(=O)C2CCC3C4CCC5NC(=O)C=C[C@]5(C)C4CC[C@]23C)cc1 (stereo not given in full) 7.76

Identify pIC50 associated with the compound C[C@]12C=CC(=O)NC1CCC1C2CC[C@]2(C)C(C(=O)Nc3ccccc3C(F)(F)F)CCC12 (stereo not given in full) 8.25

Identify pIC50 associated with the compound Cc1ccccc1NC(=O)C1CCC2C3CCC4NC(=O)C=C[C@]4(C)C3CC[C@]12C (stereo not given in full) 7.52
